Target: Rhodopsin kinase GRK1 (Homo sapiens)
Sequence (Q15835 whole entry): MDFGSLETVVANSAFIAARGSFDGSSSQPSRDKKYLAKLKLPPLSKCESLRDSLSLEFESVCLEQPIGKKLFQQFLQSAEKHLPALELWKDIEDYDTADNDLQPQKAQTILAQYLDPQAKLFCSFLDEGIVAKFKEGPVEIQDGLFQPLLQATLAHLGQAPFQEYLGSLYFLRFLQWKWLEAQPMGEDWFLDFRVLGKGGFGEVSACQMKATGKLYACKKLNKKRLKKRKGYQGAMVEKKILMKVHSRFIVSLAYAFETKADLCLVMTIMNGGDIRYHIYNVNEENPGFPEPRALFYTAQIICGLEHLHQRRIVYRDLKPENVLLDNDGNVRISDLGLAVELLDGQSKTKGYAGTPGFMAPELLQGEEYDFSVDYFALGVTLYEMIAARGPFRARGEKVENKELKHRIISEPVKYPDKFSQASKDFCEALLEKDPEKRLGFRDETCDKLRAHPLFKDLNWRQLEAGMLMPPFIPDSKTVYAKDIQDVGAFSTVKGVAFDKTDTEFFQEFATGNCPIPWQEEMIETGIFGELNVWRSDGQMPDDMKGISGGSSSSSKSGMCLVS
pIC50: −log10 of the molar value.
Here the recorded pIC50 is given for each entry.

| compound | pIC50 |
| --- | --- |
| CC1=C(C(=O)Nc2ccc3[nH]ncc3c2)C(c2ccc(F)c(CC(=O)N3CCC4CCC(C3)N4C)c2)NC(=O)N1 (stereo not drawn) | < 4.00 |
| CC1=C(C(=O)Nc2ccc3[nH]ncc3c2)C(c2ccc(F)c(CC(=O)N(CCO)Cc3ccco3)c2)NC(=O)N1 (stereo not drawn) | 4.59 |
| CCCOC1CCN(C(=O)Cc2cc(C3NC(=O)NC(C)=C3C(=O)Nc3ccc4[nH]ncc4c3)ccc2F)C1 (stereo not drawn) | < 4.00 |

Sample COCc1noc(CNC(=O)c2cc(C3NC(=O)NC(C)=C3C(=O)Nc3ccc4[nH]ncc4c3)ccc2F)n1 (stereo not drawn) , system: Rhodopsin kinase GRK1 (Homo sapiens). Its pIC50 is 4.52

Sample CC1=C(C(=O)Nc2ccc3[nH]ncc3c2)C(c2ccc(F)c(CC(=O)NC3CC(=O)N(C)C3)c2)NC(=O)N1 (stereo not drawn) , system: Rhodopsin kinase GRK1 (Homo sapiens). Its pIC50 is < 4.00

Sample CC1=C(C(=O)Nc2ccc3[nH]ncc3c2)C(c2ccc(F)c(CCC(=O)NCCc3ccccc3)c2)NC(=O)N1 (stereo not drawn) , system: Rhodopsin kinase GRK1 (Homo sapiens). Its pIC50 is < 4.00

Sample CC1=C(C(=O)Nc2ccc3[nH]ncc3c2)C(c2ccc(F)c(C(=O)NC3CC4CCC3(C)C4(C)C)c2)NC(=O)N1 (stereo not drawn) , system: Rhodopsin kinase GRK1 (Homo sapiens). Its pIC50 is < 4.00

Sample CC1=C(C(=O)Nc2ccc3[nH]ncc3c2)C(c2ccc(F)c(C(=O)N(C)Cc3cc(C)[nH]n3)c2)NC(=O)N1 (stereo not drawn) , system: Rhodopsin kinase GRK1 (Homo sapiens). Its pIC50 is < 4.00
